system: 377384-186-R-J1-PDC complex spheroid viability; test: Anticancer human tumor 377384-186-R-J1-PDC patient-derived pancreatic carcinoma cell line growth inhibition [RAS]; conditions: second compound 0.00316 µM; first compound 0.1 µM; stronger effect = lower value
metric: viability, T/C (%)
Report the figure in % without appending any unit label.

Study these solved cases before continuing.
compound	viability, T/C, %
NC1c2ccccc2OC12CCN(c1cnc3c(N4CCCc5ncccc54)n[nH]c3n1)CC2 (stereo not given) + C=CC(=O)N1CCN(c2nc(OCC3CCCN3C)nc3c(F)c(-c4nc(N)cc(C)c4C(F)(F)F)c(Cl)cc23)C(C)C1	77
O=C(c1ccc(F)c(F)c1Nc1ccc(I)cc1F)N1CC(O)([C@@H]2CCCCN2)C1 + C=CC(=O)N1CCN(c2nc(OCC3CCCN3C)nc3c(F)c(-c4nc(N)cc(C)c4C(F)(F)F)c(Cl)cc23)C(C)C1	23.8
CC1(O)CCCC1n1c(=O)c(C(F)F)cc2cnc(NC3CCN(S(C)(=O)=O)CC3)nc21 (stereo not given) + C=CC(=O)N1CCN(c2nc(OCC3CCCN3C)nc3c(F)c(-c4nc(N)cc(C)c4C(F)(F)F)c(Cl)cc23)C(C)C1	49.7
CC(Nc1ccc2c(c1)OCCn1cc(N3C(=O)OCC3C(F)F)nc1-2)C(N)=O (stereo not given) + C=CC(=O)N1CCN(c2nc(OCC3CCCN3C)nc3c(F)c(-c4nc(N)cc(C)c4C(F)(F)F)c(Cl)cc23)C(C)C1	72.2
Cc1nc(N2CCC3(CC2)COC(C)C3N)c(CO)nc1Sc1ccnc(N)c1Cl (stereo not given) + C=CC(=O)N1CCN(c2nc(OCC3CCCN3C)nc3c(F)c(-c4nc(N)cc(C)c4C(F)(F)F)c(Cl)cc23)C(C)C1	77
Nc1ccn(C2OC(CO)C(O)C2(F)F)c(=O)n1 (stereo not given) + C=CC(=O)N1CCN(c2nc(OCC3CCCN3C)nc3c(F)c(-c4nc(N)cc(C)c4C(F)(F)F)c(Cl)cc23)C(C)C1	4.72

Note to self: viability, T/C recorded for CCN1CCN(Cc2ccc(Nc3ncc(F)c(-c4cc(F)c5nc(C)n(C(C)C)c5c4)n3)nc2)CC1 + C=CC(=O)N1CCN(c2nc(OCC3CCCN3C)nc3c(F)c(-c4nc(N)cc(C)c4C(F)(F)F)c(Cl)cc23)C(C)C1 was 56.6

Note to self: viability, T/C recorded for CCC(CC)c1cc(NC2CCC(N)C2)n2nccc2n1 (stereo not given) + C=CC(=O)N1CCN(c2nc(OCC3CCCN3C)nc3c(F)c(-c4nc(N)cc(C)c4C(F)(F)F)c(Cl)cc23)C(C)C1 was 100

Note to self: viability, T/C recorded for C[C@@H](NC(=O)c1ncnc(N)c1Cl)c1ncc(C(=O)Nc2cc(C(F)(F)F)c(Cl)cn2)s1 + C=CC(=O)N1CCN(c2nc(OCC3CCCN3C)nc3c(F)c(-c4nc(N)cc(C)c4C(F)(F)F)c(Cl)cc23)C(C)C1 was 85.2

Note to self: viability, T/C recorded for C=CC(=O)Nc1cc(Nc2nccc(-c3cn(C)c4ccccc34)n2)c(OC)cc1N(C)CCN(C)C + C=CC(=O)N1CCN(c2nc(OCC3CCCN3C)nc3c(F)c(-c4nc(N)cc(C)c4C(F)(F)F)c(Cl)cc23)C(C)C1 was 81.3

* * *

system: 377384-186-R-J1-PDC complex spheroid viability; assay: Anticancer human tumor 377384-186-R-J1-PDC cell line growth inhibition [RAS]; details: second compound 10 µM; first compound 10 µM; stronger effect = lower value;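 also: spheroids exposed to compounds for seven days before readout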
metric: viability, T/C (%)
Report the figure in % without appending any unit label.

Study these solved cases before continuing.
molecule	system	readout.units	viability, T/C
CC(C)NCC(C(=O)N1CCN(c2ncnc3c2C(C)CC3O)CC1)c1ccc(Cl)cc1 (stereo not given) + C#Cc1c(F)ccc2cc(O)cc(-c3ncc4c(N5CC6CCC(C5)N6)nc(OCC56CCCN5CC(F)C6)nc4c3F)c12	377384-186-R-J1-PDC complex spheroid viability	%	0.18
NC1c2ccccc2OC12CCN(c1cnc3c(N4CCCc5ncccc54)n[nH]c3n1)CC2 (stereo not given) + C#Cc1c(F)ccc2cc(O)cc(-c3ncc4c(N5CC6CCC(C5)N6)nc(OCC56CCCN5CC(F)C6)nc4c3F)c12	377384-186-R-J1-PDC complex spheroid viability	%	0.12
CC1(O)CCCC1n1c(=O)c(C(F)F)cc2cnc(NC3CCN(S(C)(=O)=O)CC3)nc21 (stereo not given) + C#Cc1c(F)ccc2cc(O)cc(-c3ncc4c(N5CC6CCC(C5)N6)nc(OCC56CCCN5CC(F)C6)nc4c3F)c12	377384-186-R-J1-PDC complex spheroid viability	%	2.73
CCC(CC)c1cc(NC2CCC(N)C2)n2nccc2n1 (stereo not given) + C#Cc1c(F)ccc2cc(O)cc(-c3ncc4c(N5CC6CCC(C5)N6)nc(OCC56CCCN5CC(F)C6)nc4c3F)c12	377384-186-R-J1-PDC complex spheroid viability	%	3.5

Turning now to a further molecule:
Note to self: viability, T/C recorded for Cc1nc(N2CCC3(CC2)COC(C)C3N)c(CO)nc1Sc1ccnc(N)c1Cl (stereo not given) + C#Cc1c(F)ccc2cc(O)cc(-c3ncc4c(N5CC6CCC(C5)N6)nc(OCC56CCCN5CC(F)C6)nc4c3F)c12 was 0.14

* * *

tested on: 377384-186-R-J1-PDC complex spheroid viability; assay: Anticancer human tumor 377384-186-R-J1-PDC cell line growth inhibition [RAS]; conditions: compound 10 µM; active = viability on the fitted dose curve at most 10% of control; inactive = the rest;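 also: spheroids exposed to compounds for seven days before readout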
Answer with one of the outcomes active, inactive

compound	system	cat
NC1c2ccccc2OC12CCN(c1cnc3c(N4CCCc5ncccc54)n[nH]c3n1)CC2 (stereo not drawn)	377384-186-R-J1-PDC complex spheroid viability	inactive
CCC(CC)c1cc(NC2CCC(N)C2)n2nccc2n1 (stereo not drawn)	377384-186-R-J1-PDC complex spheroid viability	active
Cc1nc(N2CCC3(CC2)COC(C)C3N)c(CO)nc1Sc1ccnc(N)c1Cl (stereo not drawn)	377384-186-R-J1-PDC complex spheroid viability	inactive
CC(C)NCC(C(=O)N1CCN(c2ncnc3c2C(C)CC3O)CC1)c1ccc(Cl)cc1 (stereo not drawn)	377384-186-R-J1-PDC complex spheroid viability	inactive
CC1(O)CCCC1n1c(=O)c(C(F)F)cc2cnc(NC3CCN(S(C)(=O)=O)CC3)nc21 (stereo not drawn)	377384-186-R-J1-PDC complex spheroid viability	inactive
C#Cc1c(F)ccc2cc(O)cc(-c3ncc4c(N5CC6CCC(C5)N6)nc(OCC56CCCN5CC(F)C6)nc4c3F)c12 (stereo not drawn)	377384-186-R-J1-PDC complex spheroid viability	active

Consider the record given below.
Ask | Per the records of this test, what outcome belongs to CC(Nc1ccc2c(c1)OCCn1cc(N3C(=O)OCC3C(F)F)nc1-2)C(N)=O (stereo not drawn) ?
Reply | inactive

* * *

system: 377384-186-R-J1-PDC complex spheroid viability; test: Anticancer human tumor 377384-186-R-J1-PDC cell line growth inhibition [RAS]; conditions: second compound 0.0316 µM; first compound 0.1 µM; stronger effect = lower value;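 also: spheroids exposed to compounds for seven days before readout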
Criterion: viability, T/C strictly less than 20%. Met: Met. Not met: Not met.

molecule	cat
CC(C)NCC(C(=O)N1CCN(c2ncnc3c2C(C)CC3O)CC1)c1ccc(Cl)cc1 (configuration not stated) + C#Cc1c(F)ccc2cc(O)cc(-c3ncc4c(N5CC6CCC(C5)N6)nc(OCC56CCCN5CC(F)C6)nc4c3F)c12	Met
NC1c2ccccc2OC12CCN(c1cnc3c(N4CCCc5ncccc54)n[nH]c3n1)CC2 (configuration not stated) + C#Cc1c(F)ccc2cc(O)cc(-c3ncc4c(N5CC6CCC(C5)N6)nc(OCC56CCCN5CC(F)C6)nc4c3F)c12	Met
Nc1ccn(C2OC(CO)C(O)C2(F)F)c(=O)n1 (configuration not stated) + C=CC(=O)N1CCN(c2nc(OCC3CCCN3C)nc3c(F)c(-c4nc(N)cc(C)c4C(F)(F)F)c(Cl)cc23)C(C)C1	Met
CCN1CCN(Cc2ccc(Nc3ncc(F)c(-c4cc(F)c5nc(C)n(C(C)C)c5c4)n3)nc2)CC1 + C=CC(=O)N1CCN(c2nc(OCC3CCCN3C)nc3c(F)c(-c4nc(N)cc(C)c4C(F)(F)F)c(Cl)cc23)C(C)C1	Not met
CC(=O)OC12COC1CC(O)C1(C)C(=O)C(O)C3=C(C)C(OC(=O)C(O)C(NC(=O)OC(C)(C)C)c4ccccc4)CC(O)(C(OC(=O)c4ccccc4)C21)C3(C)C (configuration not stated) + C=CC(=O)N1CCN(c2nc(OCC3CCCN3C)nc3c(F)c(-c4nc(N)cc(C)c4C(F)(F)F)c(Cl)cc23)C(C)C1	Met
CCC(CC)c1cc(NC2CCC(N)C2)n2nccc2n1 (configuration not stated) + C#Cc1c(F)ccc2cc(O)cc(-c3ncc4c(N5CC6CCC(C5)N6)nc(OCC56CCCN5CC(F)C6)nc4c3F)c12	Not met

Consider the record given below.
Ask | Does this molecule meet the criterion viability, T/C < 20%? CC1(O)CCCC1n1c(=O)c(C(F)F)cc2cnc(NC3CCN(S(C)(=O)=O)CC3)nc21 (configuration not stated) + C#Cc1c(F)ccc2cc(O)cc(-c3ncc4c(N5CC6CCC(C5)N6)nc(OCC56CCCN5CC(F)C6)nc4c3F)c12
Reply | Met

Origin of values: PubChem BioAssay AID2060903
